Please go through the items and note down their sensor-assay potency score (higher = more potent).
# experimental_target: SPOCK1; note: reference of the scale not given here
# assay_protocol: pooled miR-30 sensor sort-seq; sequence = guide strand
# condition: shRNA
One number for each entry.

TTGTCTAGGAAATTGCCGTGGT | 0.282
ATATTCTAGGTCATCCAGCAGG | -0.735
TATTTGTCCACACACCAGCACT | -1.26
TTTGTCATCATCCTCATCCTCA | 0.0865

Working through the 2 sequences below one at a time, give sensor-assay potency score (higher = more potent) for each.
1. TTGCACTTGGATGTGTAGGAGT
2. TTCATATTCTAGGTCATCCAGC

[-0.759, -0.469]
